FYI, the data here is from patent US20110230428A1.

molecular target: KMO mouse enzyme (Mus musculus, UniProt Q91WN4); construct: KMO enzyme prepared at Evotec from mouse liver (4-6 weeks old) via mitochondria isolation; from tissue; host or cells: mouse liver (4-6 weeks old), isolated mitochondria; assay: KMO mouse enzyme assay: L-Kynurenine hydroxylation to 3OH-KYN by LC/MS; assay type: biochemical; settings: compound at 10 μM; KMO from mouse liver mitochondria; read-out: INH.Mouse @ 10 μM
Sequence (Q91WN4 whole entry): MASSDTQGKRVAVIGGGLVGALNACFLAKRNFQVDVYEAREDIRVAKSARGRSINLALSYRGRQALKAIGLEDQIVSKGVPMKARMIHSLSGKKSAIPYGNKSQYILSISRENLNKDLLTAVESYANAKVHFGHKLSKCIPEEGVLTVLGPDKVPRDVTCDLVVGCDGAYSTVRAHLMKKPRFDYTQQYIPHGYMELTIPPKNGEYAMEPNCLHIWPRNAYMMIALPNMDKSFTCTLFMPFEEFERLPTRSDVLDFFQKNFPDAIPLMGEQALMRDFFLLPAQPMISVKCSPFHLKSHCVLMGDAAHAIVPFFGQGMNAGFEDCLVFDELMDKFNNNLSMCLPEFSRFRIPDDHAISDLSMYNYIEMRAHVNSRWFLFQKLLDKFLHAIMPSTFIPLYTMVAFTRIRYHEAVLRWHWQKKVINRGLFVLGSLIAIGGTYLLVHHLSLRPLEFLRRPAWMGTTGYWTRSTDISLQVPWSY
Readout kind: inhibition at 10 µM (%)
Write it as a number; the unit % goes unstated.

{"columns": ["Compound smiles", "inhibition at 10 µM [%]"],
 "data": [
  ["CON=C(CCC(=O)Nc1cnccc1C)c1ccc(Cl)c(Cl)c1", 93.9],
  ["CO/N=C(\\CCC(=O)OC)c1ccc(Cl)c(Cl)c1", 106],
  ["CON=C(CCC(=O)Nc1ccc(F)nc1)c1ccc(Cl)c(Cl)c1", 91.7],
  ["CON=C(CCC(=O)OC[C@H](O)[C@H]1OC(=O)C(O)=C1O)c1ccc(Cl)c(Cl)c1", 102],
  ["CON=C(CCC(=O)Nc1ncccn1)c1ccc(Cl)c(Cl)c1", 101]
]}

Form field: reported inhibition at 10 µM of CON=C(CCC(=O)Nc1cnc(C)nc1)c1ccc(Cl)c(Cl)c1
90.4

Another compound to check: CON=C(CCC(=O)Nc1ccc(C)nc1C)c1ccc(Cl)c(Cl)c1
93

Another compound to check: CON=C(CCC(=O)Nc1cccnc1)c1ccc(Cl)c(Cl)c1
103

* * *

Examples of compounds with documented inhibition at 10 µM follow.
molecular target: KMO mouse enzyme (Mus musculus); construct: KMO enzyme prepared at Evotec from mouse liver (4-6 weeks old) via mitochondria isolation; from tissue; host or cells: mouse liver (4-6 weeks old), isolated mitochondria; assay: KMO mouse enzyme assay: L-Kynurenine hydroxylation to 3OH-KYN by LC/MS; type: biochemical; conditions: compound at 10 μM; KMO from mouse liver mitochondria; read-out: INH.Mouse @ 10 μM
Record the result as a number with its unit.

{"columns": ["Compound smiles", "inhibition at 10 µM"],
 "data": [
  ["CON=C(CCC(=O)Nc1c(C)ccnc1C)c1ccc(Cl)c(Cl)c1", "85%"],
  ["CON=C(CCCC(=O)OC)c1ccc(Cl)c(Cl)c1", "61.2%"]
]}

With those in mind, consider the next compound.
Form field: reported inhibition at 10 µM of CO/N=C(\CCC(=O)OC1CCOCC1)c1ccc(Cl)c(Cl)c1
102%

* * *

target: KMO mouse enzyme (Mus musculus, UniProt Q91WN4); construct: KMO enzyme prepared at Evotec from mouse liver (4-6 weeks old) via mitochondria isolation; from tissue; host or cells: mouse liver (4-6 weeks old), isolated mitochondria; assay: KMO mouse enzyme assay: L-Kynurenine hydroxylation to 3OH-KYN by LC/MS; assay type: biochemical; details: compound at 10 μM; KMO from mouse liver mitochondria; read-out: INH.Mouse @ 10 μM
Readout kind: inhibition at 10 µM (%)
Write it as a number; the unit % goes unstated.

# example entries with known answers
{"columns": ["Compound", "Unit descriptor", "inhibition at 10 µM"],
 "data": [
  ["CON=C(CCC(=O)NCCN(C)C)c1ccc(Cl)c(Cl)c1 [trifluoroacetate]", "%", 68],
  ["CON=C(CCC(=O)Nc1cncc(F)c1)c1ccc(Cl)c(Cl)c1", "%", 90.3]
]}

With those in mind, consider the next compound.
Form field: reported inhibition at 10 µM of CCNC(=O)CC/C(=N\OC)c1ccc(Cl)c(Cl)c1
98.9
